biological target: bovine serum albumin (BSA) (Bos taurus); experiment: Inhibition of the formation of AGEs in a BSA/reducing sugar solution, measured by fluorescence; format: biochemical; details: characterized molecules, in particular at 1×10^−1% in water or DMSO; BSA/reducing sugar; fluorescence versus positive control 1.5 mM aminoguanidine
Sequence (P02769 25-607): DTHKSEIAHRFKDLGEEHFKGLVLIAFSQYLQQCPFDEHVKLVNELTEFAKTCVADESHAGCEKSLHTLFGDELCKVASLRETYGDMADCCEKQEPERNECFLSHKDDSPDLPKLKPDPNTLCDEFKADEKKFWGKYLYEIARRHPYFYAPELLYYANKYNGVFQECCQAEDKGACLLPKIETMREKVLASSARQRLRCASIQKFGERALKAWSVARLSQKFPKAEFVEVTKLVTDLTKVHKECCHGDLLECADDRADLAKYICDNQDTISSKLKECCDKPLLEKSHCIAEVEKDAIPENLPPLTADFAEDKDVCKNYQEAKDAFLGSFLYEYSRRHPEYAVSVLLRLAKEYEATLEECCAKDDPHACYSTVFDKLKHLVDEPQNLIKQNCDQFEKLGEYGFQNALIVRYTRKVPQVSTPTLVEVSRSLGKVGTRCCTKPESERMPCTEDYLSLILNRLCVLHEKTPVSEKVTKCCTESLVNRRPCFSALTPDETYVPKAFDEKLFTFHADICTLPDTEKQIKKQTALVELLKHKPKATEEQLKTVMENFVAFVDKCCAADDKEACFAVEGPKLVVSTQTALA
Field: % inhibition. Provide a value for each of the molecules that follow.
Numbers only, in %.

O=C1C=CC(=O)c2cc3ccccc3cc21    89.6
O=C(/C=C/c1ccc(O)cc1)c1ccccc1 [4-Hydroxychalcone]    81.4
O=C1C[C@@H](c2ccc(O)cc2)Oc2cc(O[C@@H]3O[C@H](CO)[C@@H](O)[C@H](O)[C@H]3O)cc(O)c21    67.9
Nc1c(CO)ccc2c1C(=O)c1ccccc1C2=O [1-Amino-2-hydroxymethylanthraquinone]    66.0
Nc1ccc(O)cc1    78.5
O=C([O-])c1ccccc1-c1c2cc(I)c(=O)c(I)c-2oc2c(I)c([O-])c(I)cc12.[Na+].[Na+] [Sodium erythrosine]    95.6

--- query ---
Name the reported % inhibition value associated with the molecule Oc1ccccc1O 88.3
